Each recorded value in this set is attributed to paper PMC8157854.

- TARGET OF ASSAY: PARP-1 (Homo sapiens)
- Sequence (P09874 whole entry): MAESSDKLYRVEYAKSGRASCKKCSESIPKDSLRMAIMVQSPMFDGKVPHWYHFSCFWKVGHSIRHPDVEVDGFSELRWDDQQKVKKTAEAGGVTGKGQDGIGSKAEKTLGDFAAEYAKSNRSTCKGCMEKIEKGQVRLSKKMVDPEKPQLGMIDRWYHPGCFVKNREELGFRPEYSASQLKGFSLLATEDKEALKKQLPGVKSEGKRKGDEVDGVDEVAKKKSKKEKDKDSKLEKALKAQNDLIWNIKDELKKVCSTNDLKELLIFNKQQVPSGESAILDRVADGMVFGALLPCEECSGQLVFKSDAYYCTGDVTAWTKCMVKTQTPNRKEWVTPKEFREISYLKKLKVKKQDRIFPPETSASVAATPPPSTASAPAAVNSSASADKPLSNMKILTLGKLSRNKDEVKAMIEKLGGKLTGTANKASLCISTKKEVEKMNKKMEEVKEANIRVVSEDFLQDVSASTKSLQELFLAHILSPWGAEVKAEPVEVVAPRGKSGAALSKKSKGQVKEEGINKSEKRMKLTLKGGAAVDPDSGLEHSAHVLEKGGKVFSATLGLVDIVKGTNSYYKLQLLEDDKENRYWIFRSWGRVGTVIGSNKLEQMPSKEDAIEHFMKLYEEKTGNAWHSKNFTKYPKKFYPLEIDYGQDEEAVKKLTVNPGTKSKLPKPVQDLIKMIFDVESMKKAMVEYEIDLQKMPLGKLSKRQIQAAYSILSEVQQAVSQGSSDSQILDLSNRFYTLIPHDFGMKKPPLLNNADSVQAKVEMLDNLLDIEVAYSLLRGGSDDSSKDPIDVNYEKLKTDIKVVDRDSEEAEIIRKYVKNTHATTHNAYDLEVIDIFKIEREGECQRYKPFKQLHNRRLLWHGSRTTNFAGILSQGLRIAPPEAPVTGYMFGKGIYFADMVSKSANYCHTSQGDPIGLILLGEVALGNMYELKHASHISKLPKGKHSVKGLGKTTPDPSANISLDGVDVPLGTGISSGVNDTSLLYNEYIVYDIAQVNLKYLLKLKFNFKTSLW
- PROTOCOL DETAILS: Competitive binding assay with [3H]WC-DZ in U251MG cells
pKi: −log10 of the molar value.
EXPERIMENTAL ENDPOINT: pKi

>  <COMPOUND>
Cn1ncnc1C1c2n[nH]c(=O)c3cc(F)cc(c23)NC1c1ccc(I)cc1 (stereo not drawn)

>  <pKi>
8.76

$$$$
>  <COMPOUND>
Cn1ncnc1C1c2n[nH]c(=O)c3cc(F)cc(c23)NC1c1ccc(Br)cc1 (stereo not drawn)

>  <pKi>
8.72

$$$$
